Where do these numbers come from? They come from ChEMBL document CHEMBL5335777.

Assay: Cytotoxicity against human CCD-986Sk cells assessed as inhibition of cell growth incubated for 72 hrs by MTT assay
Type: toxicity, cell-based
propertyMeasured: IC50 at 72 h (µM)
API: value field is a number in µM; no unit string.

For reference, reported IC50 at 72 h for O=Cc1c(O)ccc2ccccc12 stands at 66.2

For reference, reported IC50 at 72 h for O=C1Nc2cc(Cl)cc(Cl)c2C1=O stands at 42.7

For reference, reported IC50 at 72 h for C=CC(=O)N1CCN(c2ncnc3c(F)c(-c4c(O)cccc4F)c(Cl)cc23)CC1 stands at 52.2

----------
Experiment: Half life in NOD-SCID mouse at 15 mg/kg, ip administered as single dose and measured upto 48 hrs by HPLC/MS analysis
Format: ADME, organism-based
Conditions: in vivo
Kindly supply the reported half-life values for the records listed here.
API: value field is a number in h; no unit string.

For reference, reported half-life for O=Cc1c(O)ccc2ccccc12 stands at 4

For reference, reported half-life for O=C1Nc2cc(Cl)cc(Cl)c2C1=O stands at 4.4

For reference, reported half-life for C=CC(=O)N1CCN(c2ncnc3c(F)c(-c4c(O)cccc4F)c(Cl)cc23)CC1 stands at 2.9
